# TARGET_OR_TEST_SYSTEM: adenosine A3 receptor (Homo sapiens)
# Sequence (P0DMS8 1-318): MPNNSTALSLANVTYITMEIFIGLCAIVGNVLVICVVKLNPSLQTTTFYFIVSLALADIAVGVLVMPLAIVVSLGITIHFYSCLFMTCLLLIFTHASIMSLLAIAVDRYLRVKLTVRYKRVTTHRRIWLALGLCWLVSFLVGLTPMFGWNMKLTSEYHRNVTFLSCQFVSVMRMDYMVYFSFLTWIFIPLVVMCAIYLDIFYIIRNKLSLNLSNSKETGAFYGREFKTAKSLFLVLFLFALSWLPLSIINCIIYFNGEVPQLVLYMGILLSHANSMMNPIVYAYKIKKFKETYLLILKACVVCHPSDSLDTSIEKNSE
QUANTITY_NAME: Ki (nM)

| COMPOUND | QUANTITY_NAME | U | READOUT_NUMBER |
| --- | --- | --- | --- |
| COCCOc1cncc(Nc2nc(-c3cccc(C#N)c3)c(-n3cncn3)s2)n1 [Example 38] | Ki | nM | 4 |
